molecular target: beta-catenin/TCF4 engagement (Homo sapiens, UniProt P35222); construct: expressed in transfected cells; host or cells: HEK293; test: Nano-BRET target engagement assay (B-cat-Halo & TCF4-Luc in HEK293 cells); assay type: cell-based; settings: read-out: NanoBRET Abs IC50
// pIC50 lookup, one value per entry
// pIC50 here means minus log10 of the molar concentration (mol/L)

{"Molecule": "CC(=O)N1CCC[C@]12CC=CCCCC1(CCCC=CCCCOC(=O)N3CC[C@@](C(=O)N[C@@H](Cc4ccccc4Cl)C(=O)N[C@@H](Cc4csc5ccccc45)C(=O)N[C@@H](CO)C(N)=O)(C3)NC(=O)[C@H](CC(C)C)NC(=O)[C@H](Cc3ccccc3)NC(=O)[C@H](C)NC(=O)[C@H](CO)NC(=O)[C@H](Cc3cccc(C(=O)O)c3)NC(=O)[C@H](CC(=O)O)NC1=O)NC(=O)[C@H](CC(C)(C)C)NC(=O)[C@H](CC(=O)O)NC2=O (some centres unmarked) [I-1902]", "pIC50": 5.11}

Now examine the next entry.
*Q* Write down pIC50 measured for item CC(=O)N1CCC[C@]12CC=CCCCC1(CCCC=CCCCOC(=O)N3CC[C@@](C(=O)N[C@@H](Cc4ccsc4)C(=O)N[C@@H](Cc4csc5ccccc45)C(=O)N[C@@H](C)C(N)=O)(C3)NC(=O)[C@H](CC(C)C)NC(=O)[C@H](Cc3ccccc3)NC(=O)[C@H](C)NC(=O)[C@H](CC(=O)N(C)C)NC(=O)[C@H](Cc3cccc(C(=O)O)c3)NC(=O)[C@H](CC(=O)O)NC1=O)NC(=O)[C@H](CC(C)(C)C)NC(=O)[C@H](CC(=O)O)NC2=O (some centres unmarked) [I-2188]
*A* 5.12

###

molecular target: full-length beta-Catenin (Uniprot ID P35222) (Homo sapiens); construct: 10 nM full-length beta-Catenin (Uniprot ID P35222); assay: Fluorescence polarization IC50 (beta-catenin / 5FAM-TCF4 10-53 competition); type: binding; conditions: fluorescence polarization; read-out: beta-Catenin FP IC50
Sequence (P35222 whole entry): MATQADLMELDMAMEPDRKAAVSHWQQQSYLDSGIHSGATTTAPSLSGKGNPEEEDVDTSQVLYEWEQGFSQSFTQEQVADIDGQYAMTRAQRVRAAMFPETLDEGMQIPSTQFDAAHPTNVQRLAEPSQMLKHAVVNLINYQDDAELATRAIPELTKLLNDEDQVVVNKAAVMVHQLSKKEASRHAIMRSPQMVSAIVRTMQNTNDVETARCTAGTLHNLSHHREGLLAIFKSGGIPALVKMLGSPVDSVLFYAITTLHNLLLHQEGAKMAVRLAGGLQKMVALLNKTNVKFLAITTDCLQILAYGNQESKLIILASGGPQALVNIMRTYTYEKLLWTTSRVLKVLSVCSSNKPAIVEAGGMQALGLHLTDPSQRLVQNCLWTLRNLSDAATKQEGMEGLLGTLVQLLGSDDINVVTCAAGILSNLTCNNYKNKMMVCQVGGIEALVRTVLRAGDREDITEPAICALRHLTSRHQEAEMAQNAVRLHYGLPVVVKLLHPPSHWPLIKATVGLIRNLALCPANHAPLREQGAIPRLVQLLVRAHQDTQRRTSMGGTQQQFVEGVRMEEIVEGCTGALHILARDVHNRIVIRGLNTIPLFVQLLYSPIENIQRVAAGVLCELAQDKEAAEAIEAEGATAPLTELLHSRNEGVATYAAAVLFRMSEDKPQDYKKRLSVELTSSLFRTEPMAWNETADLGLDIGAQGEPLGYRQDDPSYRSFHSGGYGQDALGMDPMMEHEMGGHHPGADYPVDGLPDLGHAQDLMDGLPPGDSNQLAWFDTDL
pIC50: −log10 of the molar value.
Label yes for high-side pIC50 (at or above 7) and no for low-side pIC50 (below it).

Answered cases to consult:
{"Compound": "CC(=O)N1CCC[C@]12CC=CCCCC1(CCCC=CCCCOC(=O)N3CC[C@@](C(=O)N[C@@H](Cc4ccsc4)C(=O)N[C@@H](Cc4csc5ccccc45)C(=O)N[C@@H](CCC(N)=O)C(N)=O)(C3)NC(=O)[C@H](CC(N)=O)NC(=O)[C@H](Cc3ccccc3)NC(=O)[C@H](C)NC(=O)[C@H](C)NC(=O)[C@H](CCC(N)=O)NC(=O)[C@H](CC(N)=O)NC1=O)NC(=O)[C@H](CC(C)(C)C)NC(=O)[C@H](CC(=O)O)NC2=O (some centres unmarked) [I-1566]", "Class": "no"}
{"Compound": "CC(=O)N1CCC[C@]12CC=CCCCC1(CCCC=CCCCOC(=O)N3CC[C@@](C(=O)N[C@@H](Cc4ccsc4)C(=O)N[C@@H](Cc4csc5ccccc45)C(=O)N[C@@H](CCCCN)C(N)=O)(C3)NC(=O)[C@H](CC(N)=O)NC(=O)[C@H](Cc3ccccc3)NC(=O)[C@H](C)NC(=O)C(C)(C)NC(=O)[C@H]([C@@H](C)O)NC(=O)[C@H](CC(N)=O)NC1=O)NC(=O)[C@H](CC(C)(C)C)NC(=O)[C@H](CC(=O)O)NC2=O (some centres unmarked)", "Class": "no"}

Moving on to the next compound.
*Q* Is reported pIC50 greater than or equal to 7 here: CC[C@H](C)[C@@H]1NC(=O)[C@H](CC(=O)O)NC(=O)[C@]2(CC=CCCCC3(CCCC=CCCCCCC[C@@](C)(C(=O)N[C@@H](Cc4ccccc4)C(=O)N[C@@H](Cc4csc5ccccc45)C(N)=O)NC(=O)[C@H](CC(N)=O)NC(=O)[C@H](Cc4ccccc4)NC(=O)[C@H](C)NC(=O)[C@H](C)NC(=O)[C@H](CCC(=O)O)NC(=O)[C@H](CC(=O)O)NC3=O)NC1=O)CCCN2C(C)=O (some centres unmarked) [I-715]
*A* yes

###

biological target: full-length beta-Catenin (Uniprot ID P35222) (Homo sapiens); construct: 10 nM full-length beta-Catenin (Uniprot ID P35222); assay: Fluorescence polarization IC50 (beta-catenin / 5FAM-TCF4 10-53 competition); format: binding; details: fluorescence polarization; read-out: beta-Catenin FP IC50
Parameter: IC50 (nM)
Answer in nM, number only, no unit symbol.

Known results for molecules:
{"Molecule": "CCCCCCCC(=O)N1CCC[C@]12CC=CCCCC1(CCCC=CCCCCCC[C@@](C)(C(=O)N[C@@H](Cc3ccccc3Cl)C(=O)N[C@@H](Cc3csc4ccccc34)C(=O)N[C@@H](CCC(N)=O)C(N)=O)NC(=O)[C@H]([C@@H](C)O)NC(=O)[C@H](Cc3ccccc3)NC(=O)[C@H](C)NC(=O)[C@H](C)NC(=O)[C@H](CC(=O)O)NC(=O)[C@H](CC(=O)O)NC1=O)NC(=O)[C@H](CC(C)(C)C)NC(=O)[C@H](CC(=O)O)NC2=O (stereo partly drawn) [I-1254]", "Units": "nM", "IC50": 530}
{"Molecule": "CC(=O)N1CCC[C@]12CC=CCCCC1(CCCC=CCCCOC(=O)N3CC[C@@](C(=O)N[C@@H](Cc4ccccc4)C(=O)N[C@@H](Cc4csc5ccccc45)C(=O)N[C@@H](CCCCN)C(N)=O)(C3)NC(=O)[C@H](CC(C)C)NC(=O)[C@H](Cc3ccccc3)NC(=O)[C@H](C)NC(=O)[C@H](CCCCNC(C)C)NC(=O)[C@H](CCC(N)=O)NC(=O)[C@H](CC(=O)O)NC1=O)NC(=O)[C@H](CC(C)(C)C)NC(=O)[C@H](CC(N)=O)NC2=O (stereo partly drawn) [I-1643]", "Units": "nM", "IC50": 822}
{"Molecule": "CC(=O)N1CCC[C@]12CC=CCCCC1(CCCC=CCCCOC(=O)N3CC[C@@](C(=O)N[C@@H](Cc4ccsc4)C(=O)N[C@@H](Cc4csc5ccccc45)C(=O)N[C@@H](CCC(=O)N4CCC(N5CCN(C)CC5)CC4)C(N)=O)(C3)NC(=O)[C@H](CC(C)C)NC(=O)[C@H](Cc3ccccc3)NC(=O)[C@H](C)NC(=O)[C@H](C)NC(=O)[C@H](CN(CC(=O)O)CC(F)(F)F)NC(=O)[C@H](CC(=O)O)NC1=O)NC(=O)[C@H](CC(C)(C)C)NC(=O)[C@H](CC(=O)O)NC2=O (stereo partly drawn) [I-1801]", "Units": "nM", "IC50": 7}
{"Molecule": "CC(=O)N1CCC[C@]12CC=CCCCC1(CCCC=CCCCOC(=O)N3CC[C@@](C(=O)N[C@@H](Cc4ccsc4)C(=O)N[C@@H](Cc4csc5ccccc45)C(=O)N[C@@H](CCC(N)=O)C(N)=O)(C3)NC(=O)[C@H](CC(C)C)NC(=O)[C@H](Cc3ccccc3)NC(=O)[C@H](C)NC(=O)[C@H](C)NC(=O)[C@H](Cn3cc(CCC(=O)O)nn3)NC(=O)[C@H](CC(=O)O)NC1=O)NC(=O)[C@H](CC(C)(C)C)NC(=O)[C@H](CC(=O)O)NC2=O (stereo partly drawn) [I-2082]", "Units": "nM", "IC50": 5}

*Q* Answer with IC50 of CC(=O)N1CCC[C@]12CC=CCCCC1(CCCC=CCCCCCC[C@@](C)(C(=O)N[C@@H](Cc3cccc(F)c3)C(=O)N[C@@H](Cc3csc4ccccc34)C(=O)N[C@@H](CCC(N)=O)C(N)=O)NC(=O)[C@H](CCC(N)=O)NC(=O)[C@H](Cc3cccs3)NC(=O)[C@H](C)NC(=O)[C@H](C)NC(=O)[C@H](CCC(=O)O)NC(=O)[C@H](CC(=O)O)NC1=O)NC(=O)[C@H](C)NC(=O)[C@H](CC(=O)O)NC2=O (stereo partly drawn) [I-401] measured for full-length beta-Catenin (Uniprot ID P35222) (Homo sapiens).
*A* 134

*Q* Answer with IC50 of CC(=O)N1CCC[C@]12CC=CCCCC1(CCCC=CCCCOC(=O)N3CCC(C(=O)N[C@@H](Cc4ccsc4)C(=O)N[C@@H](Cc4csc5ccccc45)C(=O)N[C@@H](C)C(N)=O)(CC3)NC(=O)[C@H](CC(C)C)NC(=O)[C@H](Cc3ccccc3)NC(=O)[C@H](C)NC(=O)[C@H](CCC(N)=O)NC(=O)[C@H](Cc3cccc(C(=O)O)c3)NC(=O)[C@H](CC(=O)O)NC1=O)NC(=O)[C@H](CC(C)(C)C)NC(=O)[C@H](CC(=O)O)NC2=O (stereo partly drawn) [I-2592] measured for full-length beta-Catenin (Uniprot ID P35222) (Homo sapiens).
*A* 37

*Q* Answer with IC50 of CC(=O)N1CCC[C@]12CC=CCCCC1(CCCC=CCCCOC(=O)N3CC[C@@](C(=O)N[C@@H](Cc4ccccc4Cl)C(=O)N[C@@H](Cc4csc5ccccc45)C(=O)N[C@@H](CCC(N)=O)C(N)=O)(C3)NC(=O)[C@H](CC(C)C)NC(=O)[C@H](Cc3ccccc3)NC(=O)[C@H](C)NC(=O)C(C)(C)NC(=O)[C@H](Cc3cccc(C(=O)O)c3)NC(=O)[C@H](CC(=O)O)NC1=O)NC(=O)[C@H](CC(C)(C)C)NC(=O)[C@H](CC(=O)O)NC2=O (stereo partly drawn) [I-1686] measured for full-length beta-Catenin (Uniprot ID P35222) (Homo sapiens).
*A* 11

*Q* Answer with IC50 of CC(=O)N1CCC[C@]12CC=CCCCC1(CCCC=CCCCCCC[C@@](C)(C(=O)N[C@@H](Cc3ccccc3)C(=O)N[C@@H](Cc3csc4ccccc34)C(=O)N[C@@H](CCC(N)=O)C(N)=O)NC(=O)[C@H](CC(N)=O)NC(=O)[C@H](Cc3ccccc3)NC(=O)[C@H](C)NC(=O)[C@H](C)NC(=O)[C@H](CN(CC(=O)O)CC(F)(F)F)NC(=O)[C@H](CC(=O)O)NC1=O)NC(=O)[C@H](CC1CCCCC1)NC(=O)[C@H](CC(=O)O)NC2=O (stereo partly drawn) [I-706] measured for full-length beta-Catenin (Uniprot ID P35222) (Homo sapiens).
*A* 57

*Q* Answer with IC50 of CC(=O)N1CCC[C@]12CC=CCCCC1(CCCC=CCCCOC(=O)N3CC[C@@](C(=O)N[C@@H](Cc4ccsc4)C(=O)N[C@@H](Cc4csc5ccccc45)C(=O)N[C@@H](CCC(N)=O)C(N)=O)(C3)NC(=O)[C@H](CCCNC(=N)N)NC(=O)[C@H](Cc3ccccc3)NC(=O)[C@H](C)NC(=O)C(C)(C)NC(=O)[C@H]([C@@H](C)O)NC(=O)[C@H](CC(N)=O)NC1=O)NC(=O)[C@H](CC(C)(C)C)NC(=O)[C@H](CC(=O)O)NC2=O (stereo partly drawn) [I-2407] measured for full-length beta-Catenin (Uniprot ID P35222) (Homo sapiens).
*A* 138
